Recorded values, source ChEMBL document CHEMBL4732148.

So I've got a bunch of compounds here, and I need their remaining at 4 h, 200 µM values.
assay: Stability in pH 2 aqueous buffer assessed as parent compound remaining at 200 uM measured after 4 hrs by UV spectrophotometry; type: physicochemical; details: read-out: Stabilty
One number for each entry, in %.

Please review the following examples before continuing.
Nc1ccn([C@@H]2O[C@H](CO)[C@@H](O)C2(F)F)c(=O)n1 = 88
O=C(Nc1ccn([C@@H]2O[C@H](CO)[C@@H](O)C2(F)F)c(=O)n1)c1ccc2c(c1)OCO2 = 100
O=C(Nc1ccn([C@@H]2O[C@H](CO)[C@@H](O)C2(F)F)c(=O)n1)c1cc(Cl)cc(Cl)c1 = 82
O=C(Nc1ccn([C@@H]2O[C@H](CO)[C@@H](O)C2(F)F)c(=O)n1)c1ccc2c(c1)OCCO2 = 100

compound COc1cc(C(=O)Nc2ccn([C@@H]3O[C@H](CO)[C@@H](O)C3(F)F)c(=O)n2)cc(OC)c1OC , remaining at 4 h, 200 µM observed: 87
